target: human VEGF receptor (VEGFR-2) (Homo sapiens (Human))
Sequence (P35968 786-1356): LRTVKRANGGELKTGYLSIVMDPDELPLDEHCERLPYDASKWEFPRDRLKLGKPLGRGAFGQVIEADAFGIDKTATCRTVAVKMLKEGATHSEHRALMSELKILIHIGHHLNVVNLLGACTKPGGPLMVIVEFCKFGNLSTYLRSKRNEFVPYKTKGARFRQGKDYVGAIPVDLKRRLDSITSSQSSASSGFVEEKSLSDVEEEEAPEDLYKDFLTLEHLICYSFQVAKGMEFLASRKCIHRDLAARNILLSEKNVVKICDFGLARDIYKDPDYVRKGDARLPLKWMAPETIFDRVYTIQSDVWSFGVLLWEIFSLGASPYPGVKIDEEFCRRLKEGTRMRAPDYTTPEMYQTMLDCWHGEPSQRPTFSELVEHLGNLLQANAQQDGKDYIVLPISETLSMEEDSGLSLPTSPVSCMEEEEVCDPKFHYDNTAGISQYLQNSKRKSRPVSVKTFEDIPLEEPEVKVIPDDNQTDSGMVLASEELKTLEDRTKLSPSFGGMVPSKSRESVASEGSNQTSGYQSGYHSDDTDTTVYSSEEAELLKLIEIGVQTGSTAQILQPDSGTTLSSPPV
TEST READOUT: IC50 (nM)

Below, each entry is followed by its recorded IC50 result.
COC(=O)CNCCNC(=O)c1cc2nccc(Oc3ccc(NC(=O)Nc4cc(C)ccc4F)c(F)c3)c2s1	9
Cc1ccoc1C(=O)Nc1cccc(Oc2ccnc3cc(C(=O)NCCCO)sc23)c1	11
COC(=O)c1cc2nccc(Oc3cccc(NC(=O)Nc4cc(C)ccc4F)c3)c2s1	21
Cc1ccoc1C(=O)Nc1cccc(Oc2ccnc3cc(C(=O)NO)sc23)c1	11
Cc1ccc(F)c(NC(=O)Nc2ccc(Oc3ccnc4cc(C(=O)NCCCN5CCOCC5)sc34)cc2F)c1	11
CCOC(=O)CN1CCN(C(=O)CN2CCN(C(=O)c3cc4nccc(Oc5ccc(NC(=O)Nc6cc(C)ccc6F)c(F)c5)c4s3)CC2)CC1	5
COCCOC(=O)c1cc2nccc(Oc3cccc(NC(=O)c4occc4C)c3)c2s1	19
Cc1ccc(F)c(NC(=O)Nc2ccc(Oc3ccnc4cc(C(=O)NCCCNC(=O)OC(C)(C)C)sc34)cc2F)c1	11
Cc1ccc(F)c(NC(=O)Nc2ccc(Oc3ccnc4cc(C(=O)NCCCN5CCCC(CO)C5)sc34)cc2F)c1 (stereo not drawn)	7
Cc1ccc(F)c(NC(=O)Nc2ccc(Oc3ccnc4cc(C(=O)NCCCO)sc34)cc2F)c1	12

[P] COC(=O)CN(CCCNC(=O)c1cc2nccc(Oc3ccc(NC(=O)Nc4cc(C)ccc4F)c(F)c3)c2s1)CC(=O)OC
[Q] Cc1ccc(F)c(NC(=O)Nc2ccc(Oc3ccnc4cc(C(=O)NCCC(=O)O)sc34)cc2F)c1
[R] Cc1ccoc1C(=O)Nc1cccc(Oc2ccnc3cc(C(=O)NCCO)sc23)c1
[S] Cc1ccc(F)c(NC(=O)Nc2ccc(Oc3ccnc4cc(C(=O)NCCCN5CCN(C)CC5)sc34)cc2F)c1
[T] CCN(CC)C(=O)c1cc2nccc(Oc3cccc(NC(=O)c4occc4C)c3)c2s1
**Query** Order the entries by their reported IC50, beginning at the minimum. # respond with the labels, arranged in the requested order
**Result** S, P, Q, R, T

====

target: VEGFR1 (Homo sapiens (Human))
Sequence (P17948 27-1338, species assumed): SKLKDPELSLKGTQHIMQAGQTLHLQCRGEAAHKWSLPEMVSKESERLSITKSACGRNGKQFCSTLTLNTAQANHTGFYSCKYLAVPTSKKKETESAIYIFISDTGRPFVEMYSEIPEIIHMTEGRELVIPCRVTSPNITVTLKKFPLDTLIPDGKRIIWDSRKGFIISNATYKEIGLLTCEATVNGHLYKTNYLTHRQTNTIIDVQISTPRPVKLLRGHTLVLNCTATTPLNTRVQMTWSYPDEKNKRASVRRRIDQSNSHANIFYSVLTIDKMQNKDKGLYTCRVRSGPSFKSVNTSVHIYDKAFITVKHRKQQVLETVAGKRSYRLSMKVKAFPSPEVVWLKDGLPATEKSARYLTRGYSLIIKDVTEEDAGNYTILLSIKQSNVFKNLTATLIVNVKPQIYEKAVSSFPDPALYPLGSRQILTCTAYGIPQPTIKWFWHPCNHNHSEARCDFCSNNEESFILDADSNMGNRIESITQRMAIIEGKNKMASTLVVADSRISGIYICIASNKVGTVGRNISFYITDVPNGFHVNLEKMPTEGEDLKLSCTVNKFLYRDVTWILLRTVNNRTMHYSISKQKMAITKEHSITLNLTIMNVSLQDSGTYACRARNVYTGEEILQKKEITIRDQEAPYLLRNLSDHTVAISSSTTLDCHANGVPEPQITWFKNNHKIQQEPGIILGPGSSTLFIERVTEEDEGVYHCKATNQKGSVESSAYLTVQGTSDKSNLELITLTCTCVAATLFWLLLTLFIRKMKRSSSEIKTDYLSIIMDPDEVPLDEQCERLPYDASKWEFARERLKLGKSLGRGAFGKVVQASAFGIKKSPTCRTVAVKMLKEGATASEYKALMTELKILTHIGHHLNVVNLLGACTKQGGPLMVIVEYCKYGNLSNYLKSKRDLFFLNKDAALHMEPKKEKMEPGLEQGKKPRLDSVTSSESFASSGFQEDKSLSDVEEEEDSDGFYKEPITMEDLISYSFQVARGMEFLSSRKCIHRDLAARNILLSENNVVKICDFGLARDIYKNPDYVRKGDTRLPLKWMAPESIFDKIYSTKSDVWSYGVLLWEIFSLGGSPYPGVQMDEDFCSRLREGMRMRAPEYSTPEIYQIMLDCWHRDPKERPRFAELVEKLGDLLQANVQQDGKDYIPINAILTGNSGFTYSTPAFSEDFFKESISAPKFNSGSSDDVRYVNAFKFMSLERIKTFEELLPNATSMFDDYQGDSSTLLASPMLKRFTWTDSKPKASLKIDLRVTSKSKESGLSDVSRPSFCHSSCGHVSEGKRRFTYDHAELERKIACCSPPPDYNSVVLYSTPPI
pIC50: −log10 of the molar value.
TEST READOUT: pIC50

COC(=O)CNCCNC(=O)c1cc2nccc(Oc3ccc(NC(=O)Nc4cc(C)ccc4F)c(F)c3)c2s1	8.05
Cc1ccc(F)c(NC(=O)Nc2ccc(Oc3ccnc4cc(C(=O)NCCN)sc34)cc2F)c1	7.96
CCOC(=O)CCCNC(=O)c1cc2nccc(Oc3ccc(NC(=O)Nc4cc(C)ccc4F)cc3)c2s1	7.80
Cc1ccc(F)c(NC(=O)Nc2ccc(Oc3ccnc4cc(C(=O)NCCCC(=O)O)sc34)cc2)c1	8.15
CCOC(=O)CN1CCN(C(=O)c2cc3nccc(Oc4ccc(NC(=O)Nc5cc(C)ccc5F)c(F)c4)c3s2)CC1	6.95
Cc1ccc(F)c(NC(=O)Nc2ccc(Oc3ccnc4cc(C(=O)NCCNC(=O)OC(C)(C)C)sc34)cc2F)c1	7.22
COC(=O)CN(CCCNC(=O)c1cc2nccc(Oc3ccc(NC(=O)Nc4cc(C)ccc4F)c(F)c3)c2s1)CC(=O)OC	8.00
COC(=O)CN(CCNC(=O)c1cc2nccc(Oc3ccc(NC(=O)Nc4cc(C)ccc4F)c(F)c3)c2s1)CC(=O)OC	7.96

[a] Cc1ccc(F)c(NC(=O)Nc2ccc(Oc3ccnc4cc(C(=O)NCCCN5CCC(O)CC5)sc34)cc2F)c1
[b] Cc1ccc(F)c(NC(=O)Nc2ccc(Oc3ccnc4cc(C(=O)NCCCN5CCC(C(=O)O)C5)sc34)cc2F)c1 (centres unmarked)
**Query** Of a and b , which carries the smaller reported pIC50 figure? Please reply using the label of the selected record.
**Result** b
(b: 7.74, a: 8.10)
